# System: S. pneumoniae D39
# procedure-details: In vitro antimicrobial activity, MIC by broth micro-dilution
# Format: cell-based
# condition-notes: Streptococcus pneumoniae, D39; read-out: MIC class, S. pneumoniae D39
Entries annotated with measured MIC
assay-endpoint: MIC

1) CCCCCCCCCCCCCCCC(=O)N(C)[C@H](CO)C(=O)N[C@H](C)C(=O)NCC(=O)N(C)[C@@H]1C(=O)N[C@@H](C)C(=O)N[C@H](C(=O)NC[C@@H](C)O)Cc2ccc(O)c(c2)-c2cc1ccc2O | 16 to 64 µg/mL
2) CCCCCCCCCCCCCCCC(=O)N(C)[C@H](CO)C(=O)N[C@H](CCc1ccccc1)C(=O)NCC(=O)N(C)[C@@H]1C(=O)N[C@@H](C)C(=O)N[C@H](C(=O)O)Cc2ccc(O)c(c2)-c2cc1ccc2O | > 64 µg/mL
3) CCCCCCCCCCCCCCCC(=O)N(C)[C@H](CO)C(=O)N[C@H](C)C(=O)NCC(=O)N(C)[C@@H]1C(=O)N[C@@H](C)C(=O)N[C@H](C(=O)N[C@@H](C)CO)Cc2ccc(O)c(c2)-c2cc1ccc2O | 16 to 64 µg/mL
4) CCCCCCCCCCCCCCCC(=O)N(C)[C@H](CO)C(=O)N[C@H](C)C(=O)NCC(=O)N(C)[C@@H]1C(=O)N[C@@H](C)C(=O)N[C@H](C(=O)N[C@H](CO)Cc2cnc[nH]2)Cc2ccc(O)c(c2)-c2cc1ccc2O | 16 to 64 µg/mL
5) CCCCCCCCCCCCCCCC(=O)N(C)[C@H](CO)C(=O)N[C@H](C)C(=O)NCC(=O)N(C)[C@@H]1C(=O)N[C@@H](C)C(=O)N[C@H](C(=O)NC(CO)(CO)CO)Cc2ccc(O)c(c2)-c2cc1ccc2O | 16 to 64 µg/mL
6) CCCCCCCCCCCCCCCC(=O)N(C)[C@H](CO)C(=O)N[C@H](C)C(=O)NCC(=O)N(C)[C@@H]1C(=O)N[C@@H](C)C(=O)N[C@H](C(=O)NCCOC)Cc2ccc(O)c(c2)-c2cc1ccc2O | < 8 µg/mL
7) CCCCCCCCCCCCCCCC(=O)N[C@H](CO)C(=O)N[C@H](C)C(=O)N[C@@H](C)C(=O)N(C)[C@@H]1C(=O)N[C@@H](C)C(=O)N[C@H](C(=O)O)Cc2ccc(O)c(c2)-c2cc1ccc2O | > 64 µg/mL
8) CCCCCCCCCCCCCCCC(=O)N(C)C(CO)C(=O)N[C@H](C)C(=O)NCC(=O)N(C)[C@@H]1C(=O)N[C@@H](C)C(=O)NC(C(=O)NCC(=O)C(=O)N(C)C)Cc2ccc(O)c(c2)-c2cc1ccc2O (stereo partly drawn) | 16 to 64 µg/mL
9) CCCCCCCCCCCCCCCC(=O)N(C)[C@H](CO)C(=O)N[C@H](C)C(=O)NCC(=O)N(C)[C@@H]1C(=O)N[C@@H](C)C(=O)N[C@H](C(=O)NCC(O)C(=O)O)Cc2ccc(O)c(c2)-c2cc1ccc2O (stereo partly drawn) | 16 to 64 µg/mL

---

# target-system: E. coli SPase (Escherichia coli)
# Construct: Full length His-tagged E. coli SPase proteins were expressed in E. coli BL21(DE3); His-tag; made in house; host or cells: E. coli BL21(DE3)
# procedure-details: Enzymatic fluorogenic substrate cleavage assay for IC50
# Format: biochemical
# condition-notes: fluorogenic peptide cleavage; read-out: IC50 class E. coli SPase
A collection of compounds and their measured IC50
assay-endpoint: IC50

1) CCCCCCCCCCCCCCCC(=O)N(C)[C@H](CN)C(=O)N[C@H](C)C(=O)NCC(=O)N(C)[C@@H]1C(=O)N[C@@H](C)C(=O)N[C@H](C(=O)O)Cc2ccc(O)c(c2)-c2cc1ccc2O [Compound 52] | 1000 to 10000 nM
2) CCCCCCCCCCCCCCCC(=O)N(C)[C@H](CO)C(=O)N[C@H](C)C(=O)NCC(=O)N(C)[C@@H]1C(=O)N[C@@H](C)C(=O)N[C@H](C(=O)NCC=O)CCCc2ccc(O)c(c2)-c2cc1ccc2O [Compound 94] | < 1000 nM
3) CCCCCCCCCCCCCCCC(=O)N(C)[C@H](CO)C(=O)N[C@H](C)C(=O)NCC(=O)N(C)[C@@H]1C(=O)N[C@@H](C)C(=O)N[C@H](C(=O)O)CCCc2ccc(O)c(c2)-c2cc1ccc2O [Compound 83] | 1000 to 10000 nM
4) CCCCCCCCCCCCCCCC(=O)N(C)[C@H](CO)C(=O)N[C@H](C)C(=O)NCC(=O)N(C)[C@@H]1C(=O)N[C@@H](C)C(=O)N[C@H](C(=O)NCC(O)C(=O)NC)Cc2ccc(O)c(c2)-c2cc1ccc2O (stereo partly shown) [Compound 90] | 1000 to 10000 nM

---

Form: system (S. aurues NCTC-8325), quantity (MIC), values below.
assay-endpoint: MIC

1) CCCCCCCCCCCCCCCC(=O)N(C)C(CO)C(=O)N[C@H](C)C(=O)NCC(=O)N(C)[C@@H]1C(=O)N[C@@H](C)C(=O)NC(C(=O)NCC(=O)C(=O)N(C)C)Cc2ccc(O)c(c2)-c2cc1ccc2O (stereo partly drawn) | > 64 µg/mL
2) CCCCCCCCCCCCCCNC(=O)N(C)[C@H](CO)C(=O)N[C@H](C)C(=O)NCC(=O)N(C)[C@@H]1C(=O)N[C@@H](C)C(=O)N[C@H](C(=O)O)Cc2ccc(O)c(c2)-c2cc1ccc2O | > 64 µg/mL
3) CCCCCCCCCCCCCCCC(=O)N(C)[C@H](CO)C(=O)N[C@H](C)C(=O)NCC(=O)N(C)[C@@H]1C(=O)N[C@@H](C)C(=O)N[C@H](C(=O)N[C@@H](CO)C(C)C)Cc2ccc(O)c(c2)-c2cc1ccc2O | > 64 µg/mL

---

# Tested on: S. agalactiae ATCC 13813
# procedure-details: In vitro antimicrobial activity, MIC by broth micro-dilution
# Assay type: cell-based
# condition-notes: Streptococcus agalactiae, ATCC13813, read-out: MIC
Listed below: MIC values for each entry.
assay-endpoint: MIC (µg/mL)

1) CCCCCCCCCCCCCCCC(=O)N(C)[C@H](CO)C(=O)N[C@H](C)C(=O)NCC(=O)N(C)[C@@H]1C(=O)N[C@@H](C)C(=O)N[C@H](C(=O)N[C@@H](C)C(=O)C(=O)N(C)C)Cc2ccc(O)c(c2)-c2cc1ccc2O | 16
2) CCCCCCCCCCCCCCCC(=O)N(C)[C@H](CO)C(=O)N[C@H](C)C(=O)NCC(=O)N(C)[C@@H]1C(=O)N[C@@H](C)C(=O)N[C@H](C(=O)NCC(=O)O)Cc2ccc(O)c(c2)-c2cc1ccc2O | 64
3) CCCCCCCCCCCCCCCC(=O)N(C)[C@H](CO)C(=O)N[C@H](C)C(=O)NCC(=O)N(C)[C@@H]1C(=O)N[C@@H](C)C(=O)N[C@H](C(=O)N[C@H](C)C(=O)C(=O)N(C)C)Cc2ccc(O)c(c2)-c2cc1ccc2O | 32
4) CCCCCCCCCCCCCCCC(=O)N(C)[C@H](CO)C(=O)N[C@H](C)C(=O)NCC(=O)N(C)[C@@H]1C(=O)N[C@@H](C)C(=O)N[C@H](C(=O)N[C@H](C)C(=O)O)Cc2ccc(O)c(c2)-c2cc1ccc2O | 32
5) CCCCCCCCCCCCCCCC(=O)N(C)[C@H](CO)C(=O)N[C@H](C)C(=O)NCC(=O)N(C)[C@@H]1C(=O)N[C@@H](C)C(=O)N[C@H](C(=O)NCC(N)=O)Cc2ccc(O)c(c2)-c2cc1ccc2O | 16
6) CCCCCCCCCCCCCCCC(=O)N(C)[C@H](CO)C(=O)N[C@H](C)C(=O)NCC(=O)N(C)[C@@H]1C(=O)N[C@@H](C)C(=O)N[C@H](C(=O)NCC(=O)N2CCCC2C(N)=O)Cc2ccc(O)c(c2)-c2cc1ccc2O (stereo partly drawn) | 32
7) CCCCCCCCCCCCCCCC(=O)N(C)[C@H](CO)C(=O)N[C@H](C)C(=O)NCC(=O)N(C)[C@@H]1C(=O)N[C@@H](C)C(=O)N[C@H](C(=O)N[C@@H](C)C(=O)O)Cc2ccc(O)c(c2)-c2cc1ccc2O | 32
8) CCCCCCCCCCCCCCCC(=O)N(C)[C@H](CO)C(=O)N[C@H](C)C(=O)NCC(=O)N(C)[C@@H]1C(=O)N[C@@H](C)C(=O)N[C@H](C(=O)NCC(=O)N2CCC[C@H]2C(=O)O)Cc2ccc(O)c(c2)-c2cc1ccc2O | 8

---

Overview of recorded MIC for various compounds
# System: S. pneumoniae D39
# procedure-details: In vitro antimicrobial activity, MIC by broth micro-dilution
# Type: cell-based
# condition-notes: Streptococcus pneumoniae, D39; read-out: MIC class, S. pneumoniae D39
assay-endpoint: MIC

1. CCCCCCCCCCCCCCCC(=O)N(C)[C@H](CO)C(=O)N[C@H](C)C(=O)NCC(=O)N(C)[C@@H]1C(=O)N[C@@H](C)C(=O)N[C@H](C(=O)NCCO)Cc2ccc(O)c(c2)-c2cc1ccc2O | < 8 µg/mL
2. CCCCCCCCCCCCCCCC(=O)N[C@H](CCN)C(=O)N[C@H](C)C(=O)NCC(=O)N(C)[C@@H]1C(=O)N[C@@H](C)C(=O)N[C@H](C(=O)O)Cc2ccc(O)c(c2)-c2cc1ccc2O | 16 to 64 µg/mL
3. CCCCCCCCCCCCCCCC(=O)N(C)[C@H](CO)C(=O)N[C@H](C)C(=O)N[C@@H](C)C(=O)N(C)[C@@H]1C(=O)N[C@@H](C)C(=O)N[C@H](C(=O)O)Cc2ccc(O)c(c2)-c2cc1ccc2O | < 8 µg/mL
